Where do these numbers come from? They come from patent US20230278972A1.

Reported Plant response rating, Galium values follow for various compounds
tested on: galium (catchweed bedstraw, Galium aparine); experiment: Test A postemergence, galium; format: in vivo; details: Postemergence, 500 g ai/ha; visual injury approx. 10 days; 0 to 100 scale (0 no effect, 100 complete control)
measurement name: Plant response rating, Galium

| item smiles | tested target | numeric readout |
| --- | --- | --- |
| Cc1cc(Cl)c(C(=O)N(C)C)cc1N(S(=O)(=O)C(F)(F)F)S(=O)(=O)C(F)(F)F | galium (catchweed bedstraw, Galium aparine) | 80 |
| COC1CCN(C(=O)c2cc(NS(=O)(=O)C(F)(F)F)c(Cl)cc2C)CC1 | galium (catchweed bedstraw, Galium aparine) | 90 |
| Cc1cc(Cl)c(C(=O)N2CCOCC2)cc1NS(=O)(=O)C(F)(F)F | galium (catchweed bedstraw, Galium aparine) | 90 |
| Cc1cc(C)c(C2=NOC3(CCCCCC3)C2)cc1NS(=O)(=O)C(F)(F)F | galium (catchweed bedstraw, Galium aparine) | 100 |
